biological target: T1, human IL-17A (human, UniProt Q16552 24-155); assay: hIL17A ELISA
T1 construct: Recombinant; biotinylated in the ELISA; also called hIL-17; hIL17A
T1 sequence (Q16552 24-155): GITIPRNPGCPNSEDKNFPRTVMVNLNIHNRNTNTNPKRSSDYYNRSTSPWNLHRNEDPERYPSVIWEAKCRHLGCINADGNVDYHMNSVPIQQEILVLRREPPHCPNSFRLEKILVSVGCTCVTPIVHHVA
pEC50: −log10 of the molar value.

BINDER	pEC50
IL17-h10F7.7 (antibody, V domains shown, IgG; constant regions not specified) VH: EVQLVQSGAEVKKPGSSVKVSCKASGYTFTDYEIHWVRQAPGQGLEWMGVNDPESGGTFYNQKFDGRVTITADKSTSTAYMELSSLRSEDTAVYYCARYYRYESFYGMDYWGQGTTVTVSS VL: EIVLTQSPDFQSVTPKEKVTITCSASSSISYIYWYQQKPDQSPKLLIKATFELASGVPSRFSGSGSGTDFTLTINSLEAEDAATYYCHQRSSYPWTFGQGTKLEIKR	10.30
IL17-h10F7.11 (antibody, V domains shown, IgG; constant regions not specified; also called h10F7.11 (VH.1a-Vk.2a)) VH: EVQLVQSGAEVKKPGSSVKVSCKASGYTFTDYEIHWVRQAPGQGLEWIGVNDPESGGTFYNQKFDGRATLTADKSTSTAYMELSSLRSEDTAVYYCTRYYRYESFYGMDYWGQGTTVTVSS VL: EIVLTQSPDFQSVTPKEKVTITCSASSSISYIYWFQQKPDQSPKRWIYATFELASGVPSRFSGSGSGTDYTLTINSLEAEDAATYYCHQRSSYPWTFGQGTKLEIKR	10.00

Sourced from patent US20140348834A1
